molecular target: LSD1 (Homo sapiens, UniProt O60341)
Measurement Kind: pKi
One number for each entry, as −log10 of the molar value.

Task item: Answer with pKi of NC1CCC(NC2CC2c2cc(F)cc(F)c2OCc2ccccc2)CC1 (stereo not shown) measured for LSD1 (Homo sapiens, UniProt O60341).
Reply: 6.57

---

biological target: LSD2 (Homo sapiens, UniProt Q8NB78); assay: Enzyme inhibition assay (in vitro peroxidase assay) against LSD2
Sequence (Q8NB78 whole entry, species assumed): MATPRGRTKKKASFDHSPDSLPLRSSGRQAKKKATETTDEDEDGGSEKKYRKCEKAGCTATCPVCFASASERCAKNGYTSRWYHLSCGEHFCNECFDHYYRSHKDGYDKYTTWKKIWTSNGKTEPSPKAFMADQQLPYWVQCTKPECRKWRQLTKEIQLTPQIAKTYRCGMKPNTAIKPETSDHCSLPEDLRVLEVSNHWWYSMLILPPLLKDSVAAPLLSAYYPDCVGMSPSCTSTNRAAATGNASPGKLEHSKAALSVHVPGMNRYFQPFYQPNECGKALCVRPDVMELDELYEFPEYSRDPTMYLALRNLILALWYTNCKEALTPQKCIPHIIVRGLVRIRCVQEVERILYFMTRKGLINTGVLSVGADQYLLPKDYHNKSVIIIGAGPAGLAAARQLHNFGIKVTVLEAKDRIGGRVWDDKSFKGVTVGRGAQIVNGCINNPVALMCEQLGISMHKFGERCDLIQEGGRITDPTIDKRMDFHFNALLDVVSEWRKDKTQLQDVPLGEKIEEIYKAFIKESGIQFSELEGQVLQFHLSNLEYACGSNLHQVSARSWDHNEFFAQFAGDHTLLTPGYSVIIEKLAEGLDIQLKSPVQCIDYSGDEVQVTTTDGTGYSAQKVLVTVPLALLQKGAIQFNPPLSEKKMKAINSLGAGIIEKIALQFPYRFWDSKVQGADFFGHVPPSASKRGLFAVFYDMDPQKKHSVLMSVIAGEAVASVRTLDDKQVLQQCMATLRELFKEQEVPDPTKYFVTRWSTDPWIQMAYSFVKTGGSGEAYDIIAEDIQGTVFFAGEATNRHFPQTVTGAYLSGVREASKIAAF
Measurement Kind: Ki

Task item: Fill: Ki (LSD2 (Homo sapiens, UniProt Q8NB78)) for this compound NC1CCC(NC2CC2c2cc(F)cc(F)c2OCc2ccccc2)CC1 (stereo not shown)
Reply: > 250 µM
